# Tested System: human CB1 receptor (Homo sapiens, UniProt P21554)
# Construct: expressed in transfected cells; host or cells: HEK293
# Sequence (P21554 whole entry): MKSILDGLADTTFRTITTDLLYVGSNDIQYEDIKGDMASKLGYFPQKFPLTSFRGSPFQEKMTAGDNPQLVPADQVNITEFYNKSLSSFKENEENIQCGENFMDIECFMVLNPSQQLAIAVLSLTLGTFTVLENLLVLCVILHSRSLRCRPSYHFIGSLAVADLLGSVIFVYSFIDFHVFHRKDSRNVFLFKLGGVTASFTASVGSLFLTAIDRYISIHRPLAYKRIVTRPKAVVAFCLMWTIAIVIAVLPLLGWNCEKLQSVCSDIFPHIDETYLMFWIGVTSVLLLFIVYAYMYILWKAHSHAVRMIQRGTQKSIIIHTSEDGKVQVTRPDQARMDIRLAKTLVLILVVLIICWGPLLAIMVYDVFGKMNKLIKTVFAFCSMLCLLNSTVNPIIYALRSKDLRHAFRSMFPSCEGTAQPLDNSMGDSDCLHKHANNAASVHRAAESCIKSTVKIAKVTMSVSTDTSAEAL
# Test Name: bioSensAll β-arrestin2 plasma membrane translocation (+GRK2) BRET biosensor assay in HEK293 cells transfected with hCB1; test compound added before EC75-80 of agonist CP55,940 (100 nM)
# Assay type: cell-based
# Conditions Used: βArrestin2 (+GRK2) BRET biosensor, vs CP55,940 100 nM (EC75-80), read-out: CB1 wt βarr2 IC50
Endpoint Label: IC50 (nM)

compound="CC(O)COc1nc(N2CCC(C)(C(N)=O)CC2)c2nc(-c3ccccc3Cl)n(-c3ccc(Cl)cc3)c2n1 (single isomer, unassigned)" result_value=2.74
compound="CN(CCO)c1nc(N(C)C2CCOC2)c2nc(-c3ccccc3Cl)n(-c3ccc(Cl)cc3)c2n1 (stereo not shown)" result_value=1.19

P: CC1(C(N)=O)CCN(c2nc(S(C)(=O)=O)nc3c2nc(-c2ccccc2Cl)n3-c2ccc(Cl)cc2)CC1
Q: Cc1cnc(-c2nc3c(N4CCC(C)(C(N)=O)CC4)nc(N(C)CCO)nc3n2-c2ccc(Cl)cc2)n1C
Would you let me know which has the greater IC50 value, P or Q ? Give the label under which the chosen entry appears.
Q

###

# Tested System: human CB1 receptor (Homo sapiens, UniProt P21554)
# Construct: expressed in transfected cells; host or cells: HEK293
# Test Name: bioSensAll β-arrestin2 plasma membrane translocation (+GRK2) BRET biosensor assay in HEK293 cells transfected with hCB1; test compound added before EC75-80 of agonist CP55,940 (100 nM)
# Type: cell-based
# Conditions Used: βArrestin2 (+GRK2) BRET biosensor, vs CP55,940 100 nM (EC75-80), read-out: CB1 wt βarr2 IC50
Endpoint Label: IC50 (nM)

compound="CCNC1(C(N)=O)CCN(c2nc(N(C)CCO)nc3c2nc(-c2ccccc2Cl)n3-c2ccc(Cl)cc2)CC1 [Compound 148]" tested_system="human CB1 receptor (Homo sapiens, UniProt P21554)" result_value=1.49
compound="COC1(C(N)=O)CCN(c2nc(OCC(C)(C)O)nc3c2nc(-c2ccccc2Cl)n3-c2ccc(Cl)cc2)CC1 [Compound 213]" tested_system="human CB1 receptor (Homo sapiens, UniProt P21554)" result_value=7.84
compound="CC(C)Oc1nc(OCC(C)(C)O)nc2c1nc(-c1ccccc1Cl)n2-c1ccc(Cl)cc1 [Compound 86]" tested_system="human CB1 receptor (Homo sapiens, UniProt P21554)" result_value=9.49

A: CN(C)CCNc1nc(N2CCC(C)(C(N)=O)CC2)c2nc(-c3ccccc3Cl)n(-c3ccc(Cl)cc3)c2n1 [Compound 102]
B: C[C@@H](CO)Oc1nc(N2CCC(C)(C(N)=O)CC2)c2nc(-c3ccccc3Cl)n(-c3ccc(Cl)cc3)c2n1 [Compound 82]
Quick one: lower IC50, A or B ? Give the label under which the chosen entry appears.
B

###

# Tested System: human CB1 receptor (Homo sapiens, UniProt P21554)
# Construct: expressed in transfected cells; host or cells: HEK293
# Test Name: bioSensAll GAPL-Gi2 BRET biosensor assay in HEK293 cells transfected with hCB1; test compound added before EC75-80 of agonist CP55,940 (0.1 nM)
# Type: cell-based
# Conditions Used: vs CP55,940 0.1 nM (EC75-80), read-out: CB1 wt Gi2 IC50
pIC50: −log10 of the molar value.
Endpoint Label: pIC50

Known pIC50 results, listed for orientation:
compound=CN(CCO)c1nc(N(C)CCO)c2nc(-c3ccccc3Cl)n(-c3ccc(Cl)cc3)c2n1 result_value=8.76
compound=CN(CCO)c1nc(N2CCC(C)(C(N)=O)CC2)c2nc(-c3ncccc3F)n(-c3ccc(Cl)cc3)c2n1 result_value=8.08

a: CC(O)COc1nc(N2CCC(C(F)(F)F)CC2)c2nc(-c3ccccc3Cl)n(-c3ccc(Cl)cc3)c2n1 (single isomer, unassigned)
b: CCNC1(C(N)=O)CCN(c2nc(Cl)nc3c2nc(-c2ccccc2Cl)n3-c2ccc(Cl)cc2)CC1
Quick one: lower pIC50, a or b ? Give the label under which the chosen entry appears.
b
(b: 8.87, a: 9.15)

###

# Tested System: human CB1 receptor (Homo sapiens)
# Construct: expressed in transfected cells; host or cells: HEK293
# Test Name: bioSensAll β-arrestin2 plasma membrane translocation (+GRK2) BRET biosensor assay in HEK293 cells transfected with hCB1; test compound added before EC75-80 of agonist CP55,940 (100 nM)
# Assay type: cell-based
# Conditions Used: βArrestin2 (+GRK2) BRET biosensor, vs CP55,940 100 nM (EC75-80), read-out: CB1 wt βarr2 IC50
Endpoint Label: IC50 (nM)

molecule=CN(CCO)c1nc(N2CCC3(CCOC3)CC2)c2nc(-c3ccccc3Cl)n(-c3ccc(Cl)cc3)c2n1 endpoint_label=IC50 result_value=0.626
molecule=CC(C)(O)COc1nc(N2CCC(C)(O)CC2)c2nc(-c3ccccc3Cl)n(-c3ccc(Cl)cc3)c2n1 endpoint_label=IC50 result_value=3.27
molecule=O=S1(=O)CCC(Nc2nc(-n3ccnc3)nc3c2nc(-c2ccccc2Cl)n3-c2ccc(Cl)cc2)CC1 endpoint_label=IC50 result_value=22.8

I: C[C@@H](O)CN(C)c1nc(N2CCC(C)(C(N)=O)CC2)c2nc(-c3ccccc3Cl)n(-c3ccc(Cl)cc3)c2n1
II: CC1(C(N)=O)CCN(c2nc(N3CCNC[C@H]3CO)nc3c2nc(-c2ccccc2Cl)n3-c2ccc(Cl)cc2)CC1
III: CN1C[C@H](F)C[C@H]1COc1nc(N2CCC(C)(C(N)=O)CC2)c2nc(-c3ccccc3Cl)n(-c3ccc(Cl)cc3)c2n1 [Compound 232]
IV: Cc1cn(C)c(-c2nc3c(N4CCC(C)(C(N)=O)CC4)nc(N(C)CCO)nc3n2-c2ccc(Cl)cc2)n1
Sort by IC50, descending. Answer format: the labels, ordered as requested.
IV, II, III, I

###

# Tested System: human CB1 receptor (Homo sapiens)
# Construct: expressed in transfected cells; host or cells: HEK293
# Test Name: bioSensAll β-arrestin2 plasma membrane translocation (+GRK2) BRET biosensor assay in HEK293 cells transfected with hCB1; test compound added before EC75-80 of agonist CP55,940 (100 nM)
# Assay type: cell-based
# Conditions Used: βArrestin2 (+GRK2) BRET biosensor, vs CP55,940 100 nM (EC75-80), read-out: CB1 wt βarr2 IC50
pIC50: −log10 of the molar value.
Endpoint Label: pIC50

Known pIC50 results, listed for orientation:
molecule="CC(O)COc1nc(N2CCC(C(F)(F)F)CC2)c2nc(-c3ccccc3Cl)n(-c3ccc(Cl)cc3)c2n1 (single isomer, unassigned)" endpoint_label=pIC50 result_value=8.69
molecule=CC1(C(N)=O)CCN(c2nc(N3CC[C@@H](O)C3)nc3c2nc(-c2ccc(C#N)nc2)n3-c2ccc(Cl)cc2)CC1 endpoint_label=pIC50 result_value=8.53
molecule=FC(F)(F)C1CCN(c2nc(OCCNCc3ccccc3)nc3c2nc(-c2ccccc2Cl)n3-c2ccc(Cl)cc2)CC1 endpoint_label=pIC50 result_value=8.12
molecule=CN(CCO)c1nc(N2CC(C)(C(N)=O)C2)c2nc(-c3ccccc3Cl)n(-c3ccc(Cl)cc3)c2n1 endpoint_label=pIC50 result_value=8.75
molecule=CC(C)(O)COc1nc(N2CC(C)(C#N)C2)c2nc(-c3ccc(C#N)nc3)n(-c3ccc(Cl)cc3)c2n1 endpoint_label=pIC50 result_value=7.81
molecule=CCOc1nc(OCC(C)(C)O)nc2c1nc(-c1ccccc1Cl)n2-c1ccc(Cl)cc1 endpoint_label=pIC50 result_value=7.44
molecule=NC(=O)C1CCN(c2nc(N3CCC[C@H]3CO)nc3c2nc(-c2ccccc2Cl)n3-c2ccc(Cl)cc2)CC1 endpoint_label=pIC50 result_value=8.14
molecule=CCOC1(C(N)=O)CCN(c2nc(OCC(C)(C)O)nc3c2nc(-c2ccccc2Cl)n3-c2ccc(Cl)cc2)CC1 endpoint_label=pIC50 result_value=8.69
molecule=CC(=O)N1CCN(c2nc(OCC(C)(C)O)nc3c2nc(-c2ccccc2Cl)n3-c2ccc(Cl)cc2)CC1 endpoint_label=pIC50 result_value=8.10
molecule=CN(CCO)c1nc(NC2CCS(=O)(=O)CC2)c2nc(-c3ccccc3Cl)n(-c3ccc(Cl)cc3)c2n1 endpoint_label=pIC50 result_value=8.36

P: CCNC1(C(N)=O)CCN(c2nc(Cl)nc3c2nc(-c2ccccc2Cl)n3-c2ccc(Cl)cc2)CC1
Q: CC1(C(N)=O)CCN(c2nc(N3CCC[C@H]3CO)nc3c2nc(-c2cccc(C#N)c2)n3-c2ccc(Cl)cc2)CC1
R: CN(CCO)c1nc(N2CCC(C)(C(N)=O)CC2)c2nc(-c3ccccc3Cl)n(-c3ccc(Cl)cc3)c2n1 [Compound 158]
Order by pIC50, ascending. Answer format: the labels, ordered as requested.
Q, P, R

Each recorded value in this set is attributed to patent US20250333418A1.
